# subjectOfTest: KCNH5
# methodDescription: pooled miR-30 sensor sort-seq; sequence = guide strand
# conditionContext: shRNA
Record t whenever sensor-assay potency score (higher = more potent) is at -0.4 or higher; record f when lower.

Would you please look over these solved cases?
{"residueSequence": "TATACAAGCAATATCTATGTTT", "assignedClass": "f"}
{"residueSequence": "TTCGTGTTTGACTTCCTGCAGT", "assignedClass": "t"}

Q) Tell me whether sensor-assay potency score (higher = more potent) is at least -0.4 here: `TGAGACACTAAAAATATCCTGA`
A) t

Q) Quick check, sensor-assay potency score (higher = more potent) >= -0.4? `TAGAGTTTTAGGAAGTCCCGTA`
A) t

====

# subjectOfTest: CREB5
# methodDescription: pooled miR-30 sensor sort-seq; sequence = guide strand
# conditionContext: shRNA
measuredParameter: sensor-assay potency score (higher = more potent)
Numbers only.

Reference set, count: 5
{"residueSequence": "TTAAGTATAGCTTAGCTGCTGC", "observed": -0.267}
{"residueSequence": "TAGAACATTGTATTTGAACTGA", "observed": -0.137}
{"residueSequence": "TTATGTGTTAACAACAACTGTT", "observed": -0.0254}
{"residueSequence": "TATGTGTTAACAACAACTGTTT", "observed": -0.672}
{"residueSequence": "TTTAATGACAAACTCAACTTAC", "observed": -0.383}

I have 3 sequences here; please give me sensor-assay potency score (higher = more potent) for each one.
1. TTGAACAATGTAATCTGTGTAG
2. TTAGATATCCTTGTGATTCTTT
3. TTACTTGTAAGTTTATTGCTGC

A)
1: -0.458; 2: 0.29; 3: 0.486

====

Answer each item with its documented sensor-assay potency score (higher = more potent).
# subjectOfTest: APOBEC1
# methodDescription: pooled miR-30 sensor sort-seq; sequence = guide strand
# conditionContext: shRNA
One number for each entry.

{"residueSequence": "TATAAAATTAACTTCCACGTGA", "observed": 0.0953}
{"residueSequence": "TAGAATTATGCAGTGCAGCTCC", "observed": 0.275}

Field: next sequence
Q) Param readout = sensor-assay potency score (higher = more potent); param system = APOBEC1; param query = `TTAAACAGGGTGGAAGACTTAG` ; response: value
A) -0.633

====

Task for the reader: assign each of the following sequences its reported sensor-assay potency score (higher = more potent).
# subjectOfTest: ANKRD23
# methodDescription: pooled miR-30 sensor sort-seq; sequence = guide strand
# conditionContext: shRNA
Numbers only.

{"residueSequence": "TTATCCAGATTAAATCTGGTAC", "observed": -0.803}
{"residueSequence": "TTCCAATTTCAGCTTCTCCCGG", "observed": -0.86}
{"residueSequence": "TAATTTGAAACGTACAGACGGT", "observed": 0.00484}

--- query ---
Q) # input sequence: `AAATCTTTCAAGTTTCTTCTTC` ; wanted: its sensor-assay potency score (higher = more potent)
A) 0.216

====

# subjectOfTest: VNN1
# methodDescription: pooled miR-30 sensor sort-seq; sequence = guide strand
# conditionContext: shRNA
Answer each item with its documented sensor-assay potency score (higher = more potent).
One number for each entry.

Worked cases, answers included:
{"residueSequence": "TTTCACTCAGCAACACCTCAGG", "observed": -0.729}
{"residueSequence": "TTACTGTTAAGACAGGTCCGGA", "observed": -1.14}
{"residueSequence": "TTAGCATTATTATTCTTGCTTG", "observed": -0.677}
{"residueSequence": "TTATTATTCTTGCTTGTGCTGT", "observed": -0.405}
{"residueSequence": "TAGAGGATAATATTAACCCGGA", "observed": -0.217}

Q) Could you share which sensor-assay potency score (higher = more potent) value was measured for `TTTGCCACAACATAGATAGAGT` ?
A) -0.809

====

# subjectOfTest: CYB5D1
# methodDescription: pooled miR-30 sensor sort-seq; sequence = guide strand
# conditionContext: shRNA
measuredParameter: sensor-assay potency score (higher = more potent)
Answers are plain numbers.

{"residueSequence": "TACTGAGATAGTCAAATTCTTC", "observed": -1.34}

For every item in the list below, what is its measured sensor-assay potency score (higher = more potent)?
1. TACTTGATCTTCTTGTATCATT
2. TACAGAAGTATTGCAGGTGTGT

A)
[-1.02, 0.111]

// each listed sequence needs a value for sensor-assay potency score (higher = more potent)
1. TAGCGGTGTAGGATTTCCCATA
2. TTAATGATGCGGATGCTCCGGG

A)
1: -1.38; 2: -0.0268

Q) Fill in: sensor-assay potency score (higher = more potent) of `TACGTCTTGAGTCTACACGAGT` is ___
A) -1.09

====

# subjectOfTest: MYRIP
# methodDescription: pooled miR-30 sensor sort-seq; sequence = guide strand
# conditionContext: shRNA
measuredParameter: sensor-assay potency score (higher = more potent)
Answers are plain numbers.

Known results for sequences:
{"residueSequence": "TTTTGCTCTTCTGTTTTCGTAT", "observed": -0.368}
{"residueSequence": "TTTTGCTTTGAATCACACCAAC", "observed": -1.21}
{"residueSequence": "TTTTCGTATAATCTTCTGCAGG", "observed": -1.35}
{"residueSequence": "TTTAATAGTAAATTAAATCTTT", "observed": -0.26}

Please look at the items below and tell me sensor-assay potency score (higher = more potent) for each one, in order.
1. TTATCTCTTATAAACACTCTAA
2. ATTGCTAACTCGTACAGCCTGT

A)
1. -0.392
2. -0.149

====

Kindly state sensor-assay potency score (higher = more potent) for each of the entries shown.
# subjectOfTest: COX4I2
# methodDescription: pooled miR-30 sensor sort-seq; sequence = guide strand
# conditionContext: shRNA

{"residueSequence": "TCCACCTTTCCTCAGCACCAAG", "observed": -2.06}
{"residueSequence": "TCAGCGTTGAGTTCTGTGCAGA", "observed": -0.281}
{"residueSequence": "TTCATGTCCAGCATGCGCTGCA", "observed": 0.312}

Q) Requested field: sensor-assay potency score (higher = more potent). Item: `TTCCTCAGCACCAAGCTCCAGG`
A) -0.515

====

# subjectOfTest: RASGEF1C
# methodDescription: pooled miR-30 sensor sort-seq; sequence = guide strand
# conditionContext: shRNA
Classification by sensor-assay potency score (higher = more potent) | ranges: band 1: < -0.9; band 2: ≥ -0.9 and < -0.5; band 3: ≥ -0.5

{"residueSequence": "TAGCACAGCCTGTTGAACCATT", "assignedClass": "band 1"}
{"residueSequence": "TCTCACTTTCGTAAGAAGCCAA", "assignedClass": "band 2"}
{"residueSequence": "ATGACAATCTTCTCTCGGCTGC", "assignedClass": "band 3"}
{"residueSequence": "TGTAGTTGCAGAAATTCCCCGT", "assignedClass": "band 3"}
{"residueSequence": "TTCCACGTGGGTCAGCTGCTGG", "assignedClass": "band 1"}

Q) Assign a bin to `ATGAAGAACTCAATCACCTGGG`
A) band 3

Q) Pick a category. Item: `TGAACCATTTCACATAAGCCTC`
A) band 1

Q) Exercise: read the entry `TTTCACATAAGCCTCCAGGTTG` and state which class it falls under.
A) band 2

====

Field: sensor-assay potency score (higher = more potent). Provide a value for each of the sequences that follow.
# subjectOfTest: ATOX1
# methodDescription: pooled miR-30 sensor sort-seq; sequence = guide strand
# conditionContext: shRNA
One number for each entry.

{"residueSequence": "TTCAATGCAGACCTTCTTGTTG", "subjectOfTest": "ATOX1", "observed": -0.466}

Take each entry in turn and give its sensor-assay potency score (higher = more potent).
1. TCCAAGCTTATTGAGGACCCGA
2. TTTCTTCAGGGTTGCAAGCAGA
3. TTGTTGGGCAGGTCAATGTCAT
4. AAGCAGAGTGTCCATGCTGTGC
5. TCAATGCAGACCTTCTTGTTGG
6. TTCCTGTTTTCTTCAGGGTTGC
7. TATTGAGGACCCGAGAGACAGC

A)
[-0.663, -1.16, -0.613, -1.19, -0.56, -0.392, -1.44]

====

# subjectOfTest: MARCH9
# methodDescription: pooled miR-30 sensor sort-seq; sequence = guide strand
# conditionContext: shRNA
Would you kindly list sensor-assay potency score (higher = more potent) for each of these sequences?

// below: answered sequences
{"residueSequence": "ATACATGCCGTAGCAGATCTGA", "observed": -0.925}
{"residueSequence": "TAGCAGAGCTCACAGCTCCAGG", "observed": -0.864}
{"residueSequence": "TACTTGAAGTAGCAGAGCTCAC", "observed": -1.11}
{"residueSequence": "TAATTTAGGACCTTCCACTGCT", "observed": 0.933}
{"residueSequence": "TTGTCCAGCTGGTACCTCCAGC", "observed": -0.754}

Consider the additional sequence presented here.
Q) # lookup: sensor-assay potency score (higher = more potent) of `TAGTACTCCTCCTCGTCGCCGT`
A) -0.394
